Numbers sourced from patent US20170227547A1.

Molecular target: T1, human IL-12 (human, UniProt P29459 23-219; P29460 23-328)
T1 construct: also called interleukin 12
T1 sequence (looked up) 1: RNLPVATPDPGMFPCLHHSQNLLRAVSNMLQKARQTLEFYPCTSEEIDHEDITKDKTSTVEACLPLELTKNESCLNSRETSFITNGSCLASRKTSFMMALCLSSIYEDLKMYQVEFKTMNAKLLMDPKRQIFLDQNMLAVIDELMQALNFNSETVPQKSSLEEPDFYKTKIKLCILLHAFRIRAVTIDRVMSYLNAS
T1 sequence (looked up) 2: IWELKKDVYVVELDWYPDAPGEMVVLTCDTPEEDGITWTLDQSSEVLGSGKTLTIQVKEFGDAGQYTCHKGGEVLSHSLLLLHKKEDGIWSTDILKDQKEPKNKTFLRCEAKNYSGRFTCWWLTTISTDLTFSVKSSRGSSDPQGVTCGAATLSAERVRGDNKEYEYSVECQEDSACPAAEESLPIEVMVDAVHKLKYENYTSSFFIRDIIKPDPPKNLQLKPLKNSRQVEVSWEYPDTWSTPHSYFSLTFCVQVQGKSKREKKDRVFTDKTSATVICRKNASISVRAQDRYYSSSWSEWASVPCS
Experiment: SPR, IL-12
experimental readout: Kd
# output: number + unit

Could you share which Kd value was measured for mAb 8 (antibody, IgG1, V domains shown, Briakinumab variant (IgG1) with five positively charged heavy chain residues mutated; also called Briakinumab with HC mutations R16A, R19A, K57A, K64A, R83A) VH: QVQLVESGGGVVQPGASLALSCAASGFTFSSYGMHWVRQAPGKGLEWVAFIRYDGSNAYYADSVAGRFTISRDNSKNTLYLQMNSLAAEDTAVYYCKTHGSHDNWGQGTMVTVSS VL: QSVLTQPPSVSGAPGQRVTISCSGSRSNIGSNTVKWYQQLPGTAPKLLIYYNDQRPSGVPDRFSGSKSGTSASLAITGLQAEDEADYYCQSYDRYTHPALLFGTGTKVTVL ?
0.07 nM

Could you share which Kd value was measured for Ustekinumab (antibody, V domains shown, Fully human IgG1; also called CNTO 1275; Stelara) VH: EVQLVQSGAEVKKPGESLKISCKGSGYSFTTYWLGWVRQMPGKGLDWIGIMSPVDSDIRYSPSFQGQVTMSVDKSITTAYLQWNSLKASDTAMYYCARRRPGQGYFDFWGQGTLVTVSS VL: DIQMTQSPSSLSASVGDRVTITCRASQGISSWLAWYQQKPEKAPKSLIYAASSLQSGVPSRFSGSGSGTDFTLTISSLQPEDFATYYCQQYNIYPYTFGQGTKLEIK ?
0.2 nM

Could you share which Kd value was measured for mAb 2 (antibody, V domains shown, Fv domain of Briakinumab on the Ustekinumab constant domains (IgG1)) VH: QVQLVESGGGVVQPGRSLRLSCAASGFTFSSYGMHWVRQAPGKGLEWVAFIRYDGSNKYYADSVKGRFTISRDNSKNTLYLQMNSLRAEDTAVYYCKTHGSHDNWGQGTMVTVSS VL: QSVLTQPPSVSGAPGQRVTISCSGSRSNIGSNTVKWYQQLPGTAPKLLIYYNDQRPSGVPDRFSGSKSGTSASLAITGLQAEDEADYYCQSYDRYTHPALLFGTGTKVTVLG ?
0.25 nM
